System: Rattus norvegicus
Assay: Antiinflammatory activity against carrageenan-induced paw edema male Wistar albino rat at 50 mg/kg, ip administered 30 mins prior to carrageenan-challenge measured after 1 hr relative to control
Type: functional
Settings: route intraperitoneal
Metric name: Activity
Don't forget the unit after the number, please.

Value lookup for Activity; key = CCOC(=O)c1sc(-c2cn(-c3ccccc3)nc2-c2ccc(Cl)cc2)nc1-c1ccc(Cl)cc1
83.78%

Given the entry O=C(O)c1sc(-c2cn(-c3ccccc3)nc2-c2ccccc2)nc1-c1ccccc1 , report its measured Activity.
87.37%

---
// lookup Activity for CCOC(=O)c1sc(-c2cn(-c3ccccc3)nc2-c2ccccc2)nc1-c1ccccc1
90.99%

# input compound: O=C(O)c1sc(-c2cn(-c3ccccc3)nc2-c2ccc(Cl)cc2)nc1-c1ccc(Cl)cc1 ; wanted: its Activity
76.57%

Given the compound CCOC(=O)c1sc(-c2cn(-c3ccccc3)nc2-c2ccc(F)cc2)nc1-c1ccc(F)cc1 , what is its reported Activity?
85.58%

----------
System: Rattus norvegicus
Assay: Antiinflammatory activity against carrageenan-induced paw edema male Wistar albino rat at 50 mg/kg, ip administered 30 mins prior to carrageenan-challenge measured after 1 hr relative to control
Assay type: functional
Details: route intraperitoneal
The entries below are paired with their reported Activity.
Field: numeric (%). Do not append units.

Reference set (6 entries):
What value of Activity has been recorded for this entry: CCOC(=O)c1sc(-c2cn(-c3ccccc3)nc2-c2ccc(OC)cc2)nc1-c1ccccc1
90.19

State the recorded Activity for this entry: COc1ccc(-c2nc(-c3cn(-c4ccccc4)nc3-c3ccc(Cl)cc3)sc2C(=O)O)cc1
86.48

Which Activity is reported for this compound? O=C(O)c1sc(-c2cn(-c3ccccc3)nc2-c2ccc(Cl)cc2)nc1-c1ccccc1
71.17

Query: Activity; subject: COc1ccc(-c2nn(-c3ccccc3)cc2-c2nc(-c3ccc(Cl)cc3)c(C(=O)O)s2)cc1
83.78

I'd like to know its Activity. The compound in question is CCOC(=O)c1sc(-c2cn(-c3ccccc3)nc2-c2ccc(Cl)cc2)nc1-c1ccccc1
89.89

Reported Activity for CCOC(=O)c1sc(-c2cn(-c3ccccc3)nc2-c2ccc(OC)cc2)nc1-c1ccc(F)cc1 : what is it?
83.78

Continuing:
Which value of Activity has been reported for CCOC(=O)c1sc(-c2cn(-c3ccccc3)nc2-c2ccccc2)nc1-c1ccc(OC)cc1 in the records?
80.18

Suppose we examine the compound COc1ccc(-c2nn(-c3ccccc3)cc2-c2nc(-c3ccccc3)c(C(=O)O)s2)cc1 ; what Activity value has been reported?
81.98

Consider the compound CCOC(=O)c1sc(-c2cn(-c3ccccc3)nc2-c2ccc(F)cc2)nc1-c1ccc(Cl)cc1 and give its measured Activity.
84.68

----------
Tested on: Rattus norvegicus
Test: Antiinflammatory activity against carrageenan-induced paw edema male Wistar albino rat at 50 mg/kg, ip administered 30 mins prior to carrageenan-challenge measured after 2 hrs relative to control
Format: functional
Settings: route intraperitoneal
# Activity >= 80% gives true (1), anything below gives false (0)

Solved entries (count: 3):
Quick check: does COc1ccc(-c2nn(-c3ccccc3)cc2-c2nc(-c3ccccc3)c(C(=O)O)s2)cc1 have Activity greater than or equal to 80%?
true (1)

Tell me whether Activity is at least 80% here: CCOC(=O)c1sc(-c2cn(-c3ccccc3)nc2-c2ccc(OC)cc2)nc1-c1ccccc1
true (1)

// inclusive: Activity at least 80%? input: O=C(O)c1sc(-c2cn(-c3ccccc3)nc2-c2ccc(F)cc2)nc1-c1ccc(Cl)cc1
false (0)

Let us examine a further case.
Hi, just wondering whether CCOC(=O)c1sc(-c2cn(-c3ccccc3)nc2-c2ccc(F)cc2)nc1-c1ccccc1 shows Activity of 80% or higher.
false (0)

----------
Test system: Saccharomyces cerevisiae
Test: Antimicrobial activity against Saccharomyces cerevisiae MTCC 170 assessed as growth inhibition after 24 hrs by agar well diffusion method
Format: functional
Active and inactive are the calls of the source. The rule behind the calls is not given here.
Metric name: MIC

Bench note: what MIC did CCOC(=O)c1sc(-c2cn(-c3ccccc3)nc2-c2ccc(F)cc2)nc1-c1ccc(Cl)cc1 show?
inactive

MIC lookup needed for CCOC(=O)c1sc(-c2cn(-c3ccccc3)nc2-c2ccc(F)cc2)nc1-c1ccccc1 , thanks.
inactive

MIC for CCOC(=O)c1sc(-c2cn(-c3ccccc3)nc2-c2ccccc2)nc1-c1ccc(Cl)cc1 ?
inactive

Please look up its MIC: CCOC(=O)c1sc(-c2cn(-c3ccccc3)nc2-c2ccccc2)nc1-c1ccc(OC)cc1
inactive

Quick check: MIC of CCOC(=O)c1sc(-c2cn(-c3ccccc3)nc2-c2ccc(OC)cc2)nc1-c1ccc(Cl)cc1 ?
inactive

---
Requested read-out: MIC. Entry: CCOC(=O)c1sc(-c2cn(-c3ccccc3)nc2-c2ccccc2)nc1-c1ccc(F)cc1
inactive

// query MIC value for entry CCOC(=O)c1sc(-c2cn(-c3ccccc3)nc2-c2ccc(Cl)cc2)nc1-c1ccccc1
inactive

----------
Tested on: Rattus norvegicus
Experiment: Antiinflammatory activity against carrageenan-induced paw edema male Wistar albino rat at 50 mg/kg, ip administered 30 mins prior to carrageenan-challenge measured after 2 hrs relative to control
Type: functional
Settings: route intraperitoneal
Exam item: assign true (1) to entries whose Activity is below 80% and false (0) to entries at or above 80%. Note that a value of exactly 80% receives false (0).

Past entries and their recorded results:
Given the entry CCOC(=O)c1sc(-c2cn(-c3ccccc3)nc2-c2ccc(Cl)cc2)nc1-c1ccc(OC)cc1 , would its reported Activity be below 80%?
true (1)

Would you kindly verify if Activity of O=C(O)c1sc(-c2cn(-c3ccccc3)nc2-c2ccc(F)cc2)nc1-c1ccc(F)cc1 is strictly less than 80%?
true (1)

Say whether its Activity is strictly beneath 80%. Entry: CCOC(=O)c1sc(-c2cn(-c3ccccc3)nc2-c2ccccc2)nc1-c1ccc(Cl)cc1
false (0)

Continuing:
Just wondering, is Activity of COc1ccc(-c2nn(-c3ccccc3)cc2-c2nc(-c3ccc(OC)cc3)c(C(=O)O)s2)cc1 below 80%?
false (0)

----------
System: Rattus norvegicus
Assay: Antiinflammatory activity against carrageenan-induced paw edema male Wistar albino rat at 50 mg/kg, ip administered 30 mins prior to carrageenan-challenge measured after 1 hr relative to control
Type: functional
Details: route intraperitoneal
// reported Activity per item

Worked cases, Activity given:
Look up Activity: CCOC(=O)c1sc(-c2cn(-c3ccccc3)nc2-c2ccc(F)cc2)nc1-c1ccccc1
76.57%

I'd like to know its Activity. The molecule in question is COc1ccc(-c2nn(-c3ccccc3)cc2-c2nc(-c3ccc(F)cc3)c(C(=O)O)s2)cc1
82.88%

Returns the measured Activity for the input molecule. Input: O=C(O)c1sc(-c2cn(-c3ccccc3)nc2-c2ccccc2)nc1-c1ccc(Cl)cc1
87.38%

Suppose we examine the molecule CCOC(=O)c1sc(-c2cn(-c3ccccc3)nc2-c2ccc(Cl)cc2)nc1-c1ccc(F)cc1 ; what Activity value has been reported?
83.78%

Requested read-out: Activity. Entry: COc1ccc(-c2nc(-c3cn(-c4ccccc4)nc3-c3ccccc3)sc2C(=O)O)cc1
82.88%

// lookup Activity for O=C(O)c1sc(-c2cn(-c3ccccc3)nc2-c2ccc(F)cc2)nc1-c1ccc(F)cc1
79.27%

New cases:
Entry COc1ccc(-c2nc(-c3cn(-c4ccccc4)nc3-c3ccc(F)cc3)sc2C(=O)O)cc1 has what Activity?
80.18%

Entry CCOC(=O)c1sc(-c2cn(-c3ccccc3)nc2-c2ccc(OC)cc2)nc1-c1ccc(OC)cc1 has what Activity?
86.48%

Requested field: Activity. Item: CCOC(=O)c1sc(-c2cn(-c3ccccc3)nc2-c2ccc(F)cc2)nc1-c1ccc(OC)cc1
80.18%

----------
Tested on: Staphylococcus aureus
Assay: Antimicrobial activity against Staphylococcus aureus MTCC 96 assessed as growth inhibition after 24 hrs by agar well diffusion method
Assay type: functional
Conditions: MTCC 96, 24 h
Metric name: MIC (µg/mL)
Report as a plain number; the unit µg/mL is understood.

Worked examples follow.
// MIC lookup, key: COc1ccc(-c2nc(-c3cn(-c4ccccc4)nc3-c3ccccc3)sc2C(=O)O)cc1
25

// lookup MIC for O=C(O)c1sc(-c2cn(-c3ccccc3)nc2-c2ccccc2)nc1-c1ccc(Cl)cc1
25

Could you share which MIC value was measured for O=C(O)c1sc(-c2cn(-c3ccccc3)nc2-c2ccc(F)cc2)nc1-c1ccc(F)cc1 ?
50

Using the record for CCOC(=O)c1sc(-c2cn(-c3ccccc3)nc2-c2ccccc2)nc1-c1ccccc1 , report its MIC.
50

Query: MIC; subject: O=C(O)c1sc(-c2cn(-c3ccccc3)nc2-c2ccc(F)cc2)nc1-c1ccc(Cl)cc1
25

Further cases:
Name the recorded MIC for O=C(O)c1sc(-c2cn(-c3ccccc3)nc2-c2ccccc2)nc1-c1ccc(F)cc1 .
12.5

----------
Tested on: Pseudomonas aeruginosa
Conditions: MTCC 741, 4 mg/ml
Description: Antimicrobial activity against Pseudomonas aeruginosa MTCC 741 assessed as growth inhibition at 4 mg/ml after 24 hrs by agar well diffusion method
Activity calls are given as the source filed them. The calls are words filed in the database; no cut-off is given here.
Metric name: DIZ

Request - read-out DIZ | tested on Pseudomonas aeruginosa | compound O=C(O)c1sc(-c2cn(-c3ccccc3)nc2-c2ccccc2)nc1-c1ccc(Cl)cc1
inactive

# returns recorded DIZ (system: Pseudomonas aeruginosa) for CCOC(=O)c1sc(-c2cn(-c3ccccc3)nc2-c2ccccc2)nc1-c1ccc(F)cc1
inactive

Hi! What's the reported DIZ for CCOC(=O)c1sc(-c2cn(-c3ccccc3)nc2-c2ccc(OC)cc2)nc1-c1ccc(F)cc1 on Pseudomonas aeruginosa?
inactive
